# ASSAYED TARGET: T1, recombinant human DLL4 (C-terminally His-tagged extracellular domain, R&D Systems) (human, UniProt Q9NR61 25-522, biotinylated in the competition ELISA)
# T1 construct: also called rhDLL4; hDLL4
# T1 sequence (Q9NR61 25-522): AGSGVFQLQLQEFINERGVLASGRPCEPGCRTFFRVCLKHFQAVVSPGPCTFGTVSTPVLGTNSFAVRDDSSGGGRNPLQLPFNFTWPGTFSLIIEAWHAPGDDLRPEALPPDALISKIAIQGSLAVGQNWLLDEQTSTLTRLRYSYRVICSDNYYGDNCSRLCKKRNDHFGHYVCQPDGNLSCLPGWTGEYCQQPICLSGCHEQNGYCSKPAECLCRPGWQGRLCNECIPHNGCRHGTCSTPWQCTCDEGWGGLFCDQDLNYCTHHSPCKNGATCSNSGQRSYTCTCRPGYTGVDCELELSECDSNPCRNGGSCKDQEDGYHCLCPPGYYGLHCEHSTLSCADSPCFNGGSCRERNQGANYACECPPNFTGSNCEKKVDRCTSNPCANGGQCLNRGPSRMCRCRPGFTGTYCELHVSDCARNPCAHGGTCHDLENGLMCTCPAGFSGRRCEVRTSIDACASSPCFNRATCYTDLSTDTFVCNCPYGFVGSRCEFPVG
# ASSAY TEXT: ProteOn off-rate screen, periplasmic extract, coated human DLL4
We begin with a simple list: items and their reported fold (off-rate vs DLLBII101G08).
Your answer should be a plain number; it is taken to be in fold.

# BINDER, UNIT ANNOTATION, fold (off-rate vs DLLBII101G08)
records = [
    ("DLLBII130B04 (VHH) VHH: EVQLVESGGGLVQAGGSLRLSCAASGRTFSSYAMAWFRQAPGKEREYVAAIRWSGGTAYYADSVQGRFTISRDNAKNTVYLQMNSLKPEDTAVYYCANRAPDTRLRPYLYDHWGQGTQVTVSS", "fold", 22),
]

Using the record for DLLBII129G10 (VHH) VHH: EVQLVESGGGLVQAGGSLRLSCAASGRTFSSYAMAWYRQAPGKEREYVAAIRWSGGTAYYADSVQSRFTISRDNAKNTVYLQMNSLKPEDTAVYYCANRAPDTRLEPYEYDHWGQGTQVTVSS , report its fold (off-rate vs DLLBII101G08). 31
